# Tested on: HCC-2998 colon
# Procedure text: NCI tumour cell line growth inhibition, 48 h
For each record, write down the corresponding TGI.

Some compounds with recorded TGI:
INSERT INTO measurements (compound, observation_type, result) VALUES
  ('CCC(=C/[C@H](C)C/C=C/C(C)=C/[C@@H](C)C(=O)[C@@H](C)[C@H](O)[C@@H](C)CC)/C=C/[C@@H]1OC(=O)C=C[C@@H]1C', 'TGI', '< 0.005 µM'),
  ('O=C1OC(=O)C2=C1C(c1cccs1)C=C(c1cccnc1)N2c1ccncc1 (centres undefined)', 'TGI', '27.1 µM'),
  ('CC(=O)OCC1OC(N2C(=S)N[C@H]([C@@H](O)[C@H](O)[C@H](O)CO)[C@H]2O)C(OC(C)=O)C(OC(C)=O)C1OC(C)=O (some centres undefined)', 'TGI', '> 100 µM'),
  ('COc1cc2c(cc1OCCCCCN1CCN(c3cc(=O)oc4ccccc34)CC1)N=C[C@@H]1CCCN1C2=O', 'TGI', '0.398 µM'),
  ('O=C(O)CCC(NC(=O)c1ccc(Nc2nc3ccc(C(F)(F)F)cc3nc2-c2ccccc2)cc1)C(=O)O (centres undefined)', 'TGI', '> 100 µM'),
  ('Cc1cc(I)cc(CN(C)CCN2CCOCC2)c1O', 'TGI', '> 100 µM'),
  ('COCOc1cc(OC)ccc1C/C=N/O', 'TGI', '> 100 µM'),
  ('CCc1nc(N)nc(N)c1-c1ccc(Cc2ccccc2)c([N+](=O)[O-])c1', 'TGI', '> 64.6 µM');

We next turn to a different compound, shown below.
Kindly note: HCC-2998 colon, C/C=C\C(CC(=O)O)CN1CCC2=C(C1)C(S(=O)(=O)C(F)(F)F)c1ccccc12 (centres undefined) , TGI value reported: > 100 µM

* * *

# System: RPMI-8226 leukemia
# Procedure text: NCI tumour cell line growth inhibition, 48 h; in the data active = GI50 below about 0.43 µM; inactive = the rest
A correct response names exactly one class from active, inactive

Solved cases below.
INSERT INTO assay_data (structure_string, discrete_label) VALUES
  ('COc1cc2c(cc1OC)[Se]c1cc(OC)c(OC)cc1[Se]2', 'inactive'),
  ('COc1cc2c(cc1OCCCNC(=O)/C=C1/C[C@H]3C=Nc4cc(OCc5ccccc5)c(OC)cc4C(=O)N3C1)NC(=O)[C@@H]1CCCN1C2=O', 'inactive'),
  ('ClC1=C(Cl)C(Cl)=C(Cl)C1=Cc1ccccc1', 'active'),
  ('O=C1Nc2ccccc2C1(c1c[nH]c2ccccc12)c1c[nH]c2ccccc12', 'inactive');

Data request: Hi, do you know how CCN(CC)c1ccc2c(cc1=O)[C@@H](NC(C)=O)CCc1cc(OC)c(OC)c(OC)c1-2 came out in this test?
Data returned: active

Data request: Hi, do you know how Cn1c(-c2c(N)n(Cc3ccc(C(F)(F)F)cc3)c3nc(C#N)c(C#N)nc23)nc2ccccc21 came out in this test?
Data returned: inactive

* * *

# System: MALME-3M melanoma
# Procedure text: NCI tumour cell line growth inhibition, 48 h
Mark 0 for TGI values under 8 µM, and 1 for everything at or above.

Data request: Hi, just wondering whether Cc1c2cnccc2c(C)c2c1c1ccccc1n2CC1CO1 (stereo not given) shows TGI of 8 µM or higher.
Data returned: 0

Data request: Hi, just wondering whether CC(C)(C)OC(=O)NCCCCCCC(=O)Cc1ccccc1 shows TGI of 8 µM or higher.
Data returned: 1

Data request: Hi, just wondering whether COC(=O)CSC1CC(=O)c2c(Cl)sc(Cl)c21 (stereo not given) shows TGI of 8 µM or higher.
Data returned: 1

Data request: Hi, just wondering whether COC1=C(OC)C23CCc4ccc(OC)c(O)c4C2(CCN3)CC1=O (stereo not given) shows TGI of 8 µM or higher.
Data returned: 1

Data request: Hi, just wondering whether CC(C1=CC=C2[C@@H]3CCC4CC(N(C)C)CC[C@]4(C)C3CC[C@]12C)N(C)C=O (stereo not given in full) shows TGI of 8 µM or higher.
Data returned: 1
